- measurement protocol: Cmax in Sprague-Dawley rat at 2 mg/kg, iv or 5 mg/kg, po
- Format: ADME, organism-based
- test context: in vivo
Cmax overview
Could you give me the number in nM? Just the number is fine.

[
  {
    "structure smiles": "CSc1ccc(CC(C)(C)NC[C@@H](O)CO[C@H](C)c2ccc(C)c3c2[C@@H]2[C@H](O3)[C@H]2C(=O)O)cc1F",
    "Cmax (nM)": 170
  }
]

Let us examine a further case.
Prompt line: Requested field: Cmax. Item: COc1ccc(CC(C)(C)NC[C@@H](O)CO[C@H](C)c2ccc(C)c3c2[C@@H]2[C@H](O3)[C@H]2C(=O)O)c(Cl)c1
Response line: 300
